# Lookup of reported TGI keyed by entry
System: OVCAR-4 ovarian
Assay: NCI tumour cell line growth inhibition, 48 h

The cases that follow already have their TGI on record.
{"Compound": "CC(C)(C)c1ccc2c(c1)S(=O)(=O)Nc1ccccc1NS(=O)(=O)c1cc(C(C)(C)C)ccc1OCCOCCOCCO2", "TGI": "48 µM"}
{"Compound": "N#CCN1C(=O)c2cccc3cc([N+](=O)[O-])cc(c23)C1=O", "TGI": "> 100 µM"}

Look up and report TGI, with OVCAR-4 ovarian as system, for CCOC(=O)[C@@H](N)CCC(=O)N[C@@H](CSCc1ccccc1)C(=O)N[C@@H](C(=O)OCC)c1ccccc1
> 57.1 µM

Fetch value of TGI on OVCAR-4 ovarian for Oc1ccccc1C(Sc1nc2ccccc2s1)Sc1nc2ccccc2s1 .
> 100 µM

// fetch TGI for CC(C)[Si](OC1=C(C(=O)N(C)c2cccc(Cl)c2)CCCC1)(C(C)C)C(C)C ; system: OVCAR-4 ovarian
26 µM

Fetch value of TGI on OVCAR-4 ovarian for COc1ccc(C2OC[C@H]3O[C@@H](OCc4ccccc4)[C@H](O)[C@@H](O)[C@@H]3O2)cc1 (stereo not given in full) .
> 100 µM

# assay system OVCAR-4 ovarian: give TGI of COc1ccccc1CCc1cc(OC)c(OC)c(OC)c1
> 100 µM

Report its TGI with OVCAR-4 ovarian as the test system: CS/C(N)=N\NC(=O)CCC(=O)Nc1ccccc1C(F)(F)F
> 100 µM

Please indicate recorded TGI of NS(=O)(=O)c1ccc(N=Nc2c(O)[nH]c3ccc(-c4cnco4)cc23)cc1 measured with OVCAR-4 ovarian.
> 25 µM

For OVCAR-4 ovarian, give the measured TGI of the entry Cn1c2c(c3ccccc31)CC1c3c(c4ccccc4n3C)CC21 (stereo not given)
> 100 µM

Provide TGI, tested on OVCAR-4 ovarian, for COc1cc(C(C)O)c[n+](CCc2c[nH]c3ccccc23)c1 (stereo not given) .
> 100 µM

* * *

System: OVCAR-4 ovarian
Test: NCI tumour cell line growth inhibition, 48 h
Experimental Readout: TGI

{"Compound": "COc1ccccc1/C=C1\\SC(=S)N(/C=C2\\C(=O)Oc3ccccc3C2=O)C1=O", "TGI": "> 100 µM"}

Could you please provide reported TGI for COc1ccc(/C=C/c2ccnc3ccccc23)c(OC)c1 ? Thanks!
> 10 µM

Given C[C@@H]1CC(=O)C2CCCC1C2=O (stereo partly specified) , respond with its TGI.
> 100 µM

Provide TGI value for the following compound: C[N+](C)(C)CC1CCCCCCCCCCC1=O (stereo unspecified)
> 100 µM

Name the recorded TGI of the item CCOc1ccccc1NC(=O)CC(C(=O)OC)C(=O)C(=O)OC (stereo unspecified) in your answer.
> 100 µM

Identify measured TGI corresponding to COc1cc2c(cc1OC)C(CC(=O)NN=C(C)C)NCC2 (stereo unspecified)
> 100 µM

Consider the compound Cn1c(=O)c(C(c2ccc([N+](=O)[O-])cc2)c2c(O)c3ccccc3n(C)c2=O)cc2ccccc21 (stereo unspecified) . State its measured TGI.
> 100 µM

* * *

Overview of recorded TGI for various compounds
Test system: U251 CNS
Test: NCI tumour cell line growth inhibition, 48 h
Provide only the numeric value, understood in µM.

{"Compound": "COC(=O)[C@H](C)NC(=O)NC(=O)NC(=O)CI", "Experimental Readout": "TGI", "Recorded Measurement": 31.4}
{"Compound": "CC1CC[C@]2(C(=O)O)CCC3(C)C(=CC(=O)C4[C@@]5(C)CCC(=O)C(C)(C)C5CC[C@]43C)[C@@H]2[C@H]1C (some centres undefined)", "Experimental Readout": "TGI", "Recorded Measurement": 98.8}
{"Compound": "Cc1cccc(NC(=O)C(=O)C(C(=O)c2ccc3ccccc3c2)C2OC(=O)c3ccccc32)c1C (centres undefined)", "Experimental Readout": "TGI", "Recorded Measurement": 23.1}
{"Compound": "CC(C)n1nc(-c2cc3cc(O)ccc3[nH]2)c2c(N)ncnc21", "Experimental Readout": "TGI", "Recorded Measurement": 10.9}
{"Compound": "CCN(CC)CCNc1nc2ccc([N+](=O)[O-])cc2[n+]([O-])n1", "Experimental Readout": "TGI", "Recorded Measurement": 77.2}
{"Compound": "C=C1C(=O)O[C@@H]2/C=C(\\C)CC/C=C(/COC(C)=O)C[C@@H](OC(C)=O)[C@@H]12", "Experimental Readout": "TGI", "Recorded Measurement": 36.7}
{"Compound": "CCOC(=O)c1c(C)n(Cc2ccc(Cl)cc2Cl)c2c1c(CN(C)C)c(O)c1[nH]cnc12", "Experimental Readout": "TGI", "Recorded Measurement": 27.9}
{"Compound": "CN1CCN(CCCOc2ccc3nc(Nc4ccc(Cl)c(C(F)(F)F)c4)ccc3c2)CC1", "Experimental Readout": "TGI", "Recorded Measurement": 26.2}

Could you please provide reported TGI for O=C(NNC(=S)Nc1cccc(Cl)c1)c1cc(-c2ccccc2)nc2ccccc12 ? Thanks!
30.4

Dear colleague, please send me the reported TGI for CCOc1ccccc1N=Nc1ccc2oc(=O)c(C(=O)Nc3cccc(C)c3)cc2c1 when you can.
81.2

In one line, give reported TGI of the entry O=C(Cc1ccccc1)NN1C(=O)C(Cl)C1c1cc(Br)ccc1O (centres undefined) .
32.6

Supply TGI value. Item: CC(C)[Si](OC1=C(C(=O)N(C)c2cccc(Cl)c2)CCCC1)(C(C)C)C(C)C
32.9

Identify measured TGI associated with Cc1cc(S(=O)(=O)Nc2nnc(-c3ccccc3)c(-c3ccccc3)n2)c(SCC(N)=O)cc1Cl
78.4

// Input: COC1=C(OC)C(=O)C(Cc2c(C)nc3sc(C)cn23)=C(C)C1=O . Output its TGI only.
39.7

* * *

TGI: recorded values
Test system: M19-MEL melanoma
Assay: NCI tumour cell line growth inhibition, 48 h
Could you give me the number in µM? Just the number is fine.

Look over these answered cases.
{"Compound": "CC1CC[C@]2(C(=O)O)CCC3(C)C(=CC(=O)C4[C@@]5(C)CCC(=O)C(C)(C)C5CC[C@]43C)[C@@H]2[C@H]1C (stereo not given in full)", "TGI, µM": 71.3}
{"Compound": "CC1(C)C(=O)N(CCCCCCN2C(=O)C(C)(C)c3ccccc32)c2ccccc21", "TGI, µM": 65.2}
{"Compound": "CCOc1ccccc1N=Nc1ccc2oc(=O)c(C(=O)Nc3cccc(C)c3)cc2c1", "TGI, µM": 93.4}
{"Compound": "N#CCN1C(=O)c2cccc3cc([N+](=O)[O-])cc(c23)C1=O", "TGI, µM": 44.5}

Let us examine a further case.
Please give measured TGI of the following entry: CC(=O)[O-].CCN(CC)c1ccc(C=NCCN=Cc2ccc(N(CC)CC)cc2[O-])c([O-])c1.[Mn+3]
32.4

* * *

Tested on: NCI-H460 lung
Experiment: NCI tumour cell line growth inhibition, 48 h; in the data active means GI50 below about 0.43 µM; inactive means the rest
Log the outcome using a class from YES for active, NO for inactive

Name the outcome recorded for CN1CCN(CCCOc2ccc3nc(Nc4ccc(Cl)c(C(F)(F)F)c4)ccc3c2)CC1 in the assay.
NO

Each compound tested received a call. Report the one for COC(=O)[C@@H](C)CNS(=O)(=O)N(c1cc(C(F)(F)F)cc(C(F)(F)F)c1)C1CCN(Cc2ccc(F)cc2)CC1 .
NO

Could you kindly confirm the outcome this assay logged for COc1cc2nc3cc([N+](=O)[O-])ccc3c(NCCCNCCO)c2cc1OC ?
YES

Per the records of this test, what outcome belongs to c1cc(CNC23CC4CC(CC(C4)C2)C3)cc(C[N+](Cc2cccc(CNC34CC5CC(CC(C5)C3)C4)c2)(Cc2cccc(CNC34CC5CC(CC(C5)C3)C4)c2)Cc2cccc(CNC34CC5CC(CC(C5)C3)C4)c2)c1 (centres undefined) ?
NO

* * *

The compounds listed here are annotated with their TGI.
Tested on: BT-549 breast
Test: NCI tumour cell line growth inhibition, 48 h

Recorded TGI, per entry:
{"Compound": "CC12C(=O)CC(CC1=O)C2(C)C", "Experimental Readout": "TGI", "Recorded Measurement": "> 100 µM"}
{"Compound": "CSc1ncnc2c1ncn2C1CC(Oc2ccc(C)cc2)C(COc2ccc(C)cc2)O1 (centres undefined)", "Experimental Readout": "TGI", "Recorded Measurement": "> 100 µM"}
{"Compound": "COc1ccc(Nc2c3ccccc3nc3occc23)cc1", "Experimental Readout": "TGI", "Recorded Measurement": "45.8 µM"}
{"Compound": "Cc1cccc(N=NC(=O)NNc2cccc(C)c2C)c1C", "Experimental Readout": "TGI", "Recorded Measurement": "> 100 µM"}
{"Compound": "O=C(O)C1OC(n2cc(F)c(=O)[nH]c2=O)CC1O (centres undefined)", "Experimental Readout": "TGI", "Recorded Measurement": "> 100 µM"}

Using known records, supply TGI for OC[C@H]1CCCC1O (some centres undefined)
> 100 µM

Output TGI of NS(=O)(=O)c1ccc(N=Nc2c(O)[nH]c3ccc(-c4cnco4)cc23)cc1
> 25 µM

Entry CCOC(=O)CNc1c(OCc2ccccc2)c(=O)c1=O needs its TGI filled in; supply it.
> 100 µM

Supply TGI value. Item: Nc1cc2[nH]c(=O)c(=O)[nH]c2cc1N
> 100 µM
